Measurement record for MDA-MB-231 breast; quantity recorded: GI50.

See these solved cases before continuing.
{"molecule": "CC(=O)Nc1ccc(Sc2ccc([N+](=O)[O-])o2)cc1", "GI50": "2180 nM"}
{"molecule": "CS(=O)CCCCCN=C=S (stereo not drawn)", "GI50": "4760 nM"}

With those in mind, consider the next molecule.
Request: I have this molecule here, C=C1C[C@](OC)([C@H](O)C(=O)N[C@@H](OC)[C@@H]2C[C@@H](O)C(C)(C)[C@@H](C[C@@H](COC)OC)O2)O[C@H](C)[C@@H]1C , and I need its recorded GI50.
Result: 2.86 nM
